Assay: logP determination by HPLC on reverse-phase column (C 18), EEC directive 79/831 Annex V.A8
Assay type: physicochemical
Conditions: reverse-phase HPLC column (C 18), pH 2.3, acidic range, pH 2.3; 0.1% aqueous phosphoric acid/acetonitrile gradient; 43° C.; values marked a)

| compound | chromatographic logP |
| --- | --- |
| CC(=O)c1ccc(C2CCC(c3ccccc3Cl)=N2)cc1 (stereo not drawn) | 1.88 |
| Clc1ccc(C2CCC(c3ccccc3Cl)=N2)cc1Cl (stereo not drawn) | 3.83 |
| Fc1cccc(F)c1C1=NC(c2ccc(C3CCCCC3)cc2)CC1 (stereo not drawn) | 3.84 |
| CC(C)(C)OC(=O)N1C(=O)CCC1c1ccc(CCc2ccccc2)cc1 (stereo not drawn) | 4.11 |
| Cc1ccc(C2CCC(c3ccccc3Br)=N2)c(C)c1 (stereo not drawn) | 2.55 |
| CC(C)(C)OC(=O)N1C(=O)CCC1c1ccc(Cl)cc1 (stereo not drawn) | 2.93 |
| CC(C)(C)OC(=O)N1C(=O)CCC1c1ccc(-c2ccc(Br)cc2)cc1 (stereo not drawn) | 4.26 |
| Clc1ccccc1C1=NC(c2ccc(Br)cc2)CC1 (stereo not drawn) | 2.76 |
| Clc1ccc(C2=NC(c3ccc(Br)cc3)CC2)cc1 (stereo not drawn) | 2.17 |

###

Assay: logP determination by HPLC on reverse-phase column (C 18), EEC directive 79/831 Annex V.A8
Assay type: physicochemical
Settings: reverse-phase HPLC column (C 18), pH 7.5, neutral range, pH 7.5; 0.01 molar aqueous phosphate buffer/acetonitrile gradient; 43° C.; values marked b)
Entries whose chromatographic logP is below 5 take True; entries at or above 5 take False.

| compound | group_label |
| --- | --- |
| Cc1ccccc1C1=NC(c2ccccc2)CC1 (centres unmarked) [Example 94] | True |
| Fc1ccccc1C1=NC(c2ccc(OC(F)(F)F)cc2)CC1 (centres unmarked) [Example 68] | True |
| Fc1ccccc1C1=NC(c2ccc(-c3ccc(SC(F)(F)F)cc3)cc2)CC1 (centres unmarked) [Example 17] | False |
| CC(C)(C)OC(=O)N1C(=O)C(C(=O)c2ccccc2Br)CC1c1ccc(OC(F)(F)F)cc1 (centres unmarked) [II-1] | True |

###

Assay: logP determination by HPLC on reverse-phase column (C 18), EEC directive 79/831 Annex V.A8
Format: physicochemical
Conditions: reverse-phase HPLC column (C 18), pH 2.3, acidic range, pH 2.3; 0.1% aqueous phosphoric acid/acetonitrile gradient; 43° C.; values marked a)
Class boundaries, taken from values of chromatographic logP, are as follows: bottom end: < 2; midrange: ≥ 2 and < 3; top end: ≥ 3

| compound | group_label |
| --- | --- |
| Fc1cc(F)c(C2=NC(c3ccc(-c4ccc(OC(F)(F)F)cc4)cc3)CC2)c(F)c1 (centres unmarked) | top end |
| CC(C)(C)c1ccc(C2CCC(c3ccccc3F)=N2)cc1 (centres unmarked) | midrange |
| FC(F)(F)Oc1ccc(-c2ccc(C3CCC(c4ccccc4C(F)(F)F)=N3)cc2)cc1 (centres unmarked) | top end |
| CC(C)(C)OC(=O)N1C(=O)CCC1c1ccc(OC(F)(F)F)cc1 (centres unmarked) | top end |
| Clc1ccc(C2=NC(c3ccccc3)CC2)cc1Cl (centres unmarked) | midrange |
| CC(C)(C)OC(=O)N1C(=O)CCC1c1ccc(C(C)(C)C)cc1 (centres unmarked) | top end |
| Cc1ccccc1C1=NC(c2ccc(F)cc2)CC1 (centres unmarked) | bottom end |
| Clc1ccc(C2=NC(c3ccccc3)CC2)cc1 (centres unmarked) | bottom end |
| CC(C)(C)OC(=O)N1C(=O)CCC1c1ccc(F)cc1F (centres unmarked) | midrange |
| COc1ccc(C2CCC(=O)N2)cc1F (centres unmarked) | bottom end |
| CC(C)Oc1ccc(-c2ccc(C3CCC(=O)N3)cc2)cc1 (centres unmarked) | midrange |
| Cc1cc(Cl)ccc1C1CCC(c2ccccc2Br)=N1 (centres unmarked) | top end |
| Cc1ccc(C2CCC(c3ccccc3Cl)=N2)c(Cl)c1 (centres unmarked) | top end |
| CSc1ccc(C2CCC(c3ccccc3F)=N2)cc1 (centres unmarked) | bottom end |
| Cc1cc(Cl)ccc1C1CCC(=O)N1C(=O)OC(C)(C)C (centres unmarked) | top end |
| Cc1ccc(C2CCC(c3ccccc3Br)=N2)cc1 (centres unmarked) | midrange |
| Cc1ccc(C2CCC(c3ccccc3Br)=N2)c(Cl)c1 (centres unmarked) | top end |
| CCOC(=O)Oc1ccc(-c2ccc(C3CCC(=O)N3)cc2)cc1 (centres unmarked) | midrange |
| CC(C)Sc1ccc(C2CCC(c3c(F)cccc3F)=N2)cc1 (centres unmarked) | midrange |
| O=C1CCC(c2ccc(Br)cc2)N1 (centres unmarked) | bottom end |
| Cc1ccc(C2CCC(c3ccccc3Br)=N2)cc1Cl (centres unmarked) | top end |
| COc1ccc(C2CCC(c3ccccc3Br)=N2)cc1F (centres unmarked) | midrange |
| Cc1ccc(C2CCC(=O)N2)cc1 (centres unmarked) | bottom end |
| Cc1ccc(C2CCC(c3ccccc3Cl)=N2)c(C)c1 (centres unmarked) | midrange |
| O=C1CCC(c2ccc(-c3ccc(OCc4ccc(OC(F)(F)F)cc4)cc3)cc2)N1 (centres unmarked) | top end |
| Cc1cccc(C)c1C1=NC(c2ccc(-c3ccc(OC(F)(F)F)cc3)cc2)CC1 (centres unmarked) | top end |
| Cc1cc(OC(F)(F)F)ccc1-c1ccc(C2CCC(c3c(F)cccc3F)=N2)cc1 (centres unmarked) | top end |
| FC(F)(F)Oc1ccc(C2CCC(c3ccccc3Br)=N2)cc1 (centres unmarked) | top end |
| CC(C)(C)OC(=O)N1C(=O)CCC1c1ccccc1 (centres unmarked) | midrange |
| Fc1ccccc1C1=NC(c2ccccc2)CC1 (centres unmarked) | bottom end |
| Fc1ccc(C2CCC(c3ccccc3Cl)=N2)c(F)c1 (centres unmarked) | midrange |
| CSc1ccc(C2CCC(c3ccccc3Br)=N2)cc1 (centres unmarked) | midrange |
| Cc1ccc(C2CCC(=O)N2C(=O)OC(C)(C)C)c(Cl)c1 (centres unmarked) | top end |
| CC(C)(C)c1ccc(C2CCC(c3ccccc3Br)=N2)cc1 (centres unmarked) | top end |
| FC(F)(F)Oc1ccc(-c2ccc(C3CCC(c4ccccc4OC(F)(F)F)=N3)cc2)cc1 (centres unmarked) | top end |
| Fc1ccc(C2CCC(c3c(Cl)cccc3Cl)=N2)cc1 (centres unmarked) | top end |
| CC(C)c1ccc(C2CCC(=O)N2)cc1 (centres unmarked) | midrange |
| Clc1ccc(C2CCC(c3ccccc3Cl)=N2)cc1 (centres unmarked) | midrange |
